- ASSAYED_TARGET: Kappa-type opioid receptor (Homo sapiens)
- Sequence (P41145 whole entry): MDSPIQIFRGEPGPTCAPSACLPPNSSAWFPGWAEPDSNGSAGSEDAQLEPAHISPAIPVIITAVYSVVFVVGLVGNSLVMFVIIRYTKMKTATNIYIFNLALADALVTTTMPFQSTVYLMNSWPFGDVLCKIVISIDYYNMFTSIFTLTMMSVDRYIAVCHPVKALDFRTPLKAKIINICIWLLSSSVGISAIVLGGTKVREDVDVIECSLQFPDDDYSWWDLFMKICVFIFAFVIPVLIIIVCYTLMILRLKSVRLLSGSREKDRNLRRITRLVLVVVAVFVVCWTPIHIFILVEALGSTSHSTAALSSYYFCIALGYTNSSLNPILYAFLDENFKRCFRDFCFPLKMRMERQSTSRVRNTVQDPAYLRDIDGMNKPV
pKi: −log10 of the molar value.
OBSERVATION_TYPE: pKi

Consider the molecule shown here: CC(CF)NCC(O)COc1cccc2[nH]c3ccccc3c12 [Fluorocarazolol,(S)] What is its recorded pKi? < 5.00

====

- ASSAYED_TARGET: Sodium-dependent serotonin transporter (Homo sapiens)
- Sequence (P31645 whole entry): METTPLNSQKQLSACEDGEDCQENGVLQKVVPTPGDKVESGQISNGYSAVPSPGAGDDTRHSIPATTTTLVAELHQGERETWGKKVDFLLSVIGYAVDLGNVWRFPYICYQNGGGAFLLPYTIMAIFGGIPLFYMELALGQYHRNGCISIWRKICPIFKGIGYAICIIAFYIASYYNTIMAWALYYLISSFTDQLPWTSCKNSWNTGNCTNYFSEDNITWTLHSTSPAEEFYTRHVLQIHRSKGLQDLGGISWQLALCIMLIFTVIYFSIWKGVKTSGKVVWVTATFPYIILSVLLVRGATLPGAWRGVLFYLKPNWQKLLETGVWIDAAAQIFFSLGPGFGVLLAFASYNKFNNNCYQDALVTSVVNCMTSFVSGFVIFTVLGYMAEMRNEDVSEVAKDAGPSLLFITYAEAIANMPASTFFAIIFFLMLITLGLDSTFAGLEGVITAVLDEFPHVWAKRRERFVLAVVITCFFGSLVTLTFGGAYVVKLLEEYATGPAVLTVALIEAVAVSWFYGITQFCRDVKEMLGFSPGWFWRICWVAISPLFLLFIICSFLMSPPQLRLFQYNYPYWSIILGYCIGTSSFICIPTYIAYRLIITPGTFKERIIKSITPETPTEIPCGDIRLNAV
OBSERVATION_TYPE: Ki

Record request: Ki value, item CC(CF)NCC(O)COc1cccc2[nH]c3ccccc3c12 [Fluorocarazolol,(S)] > 10 µM

====

- ASSAYED_TARGET: Delta-type opioid receptor (Homo sapiens, UniProt P41143)
- Sequence (P41143 whole entry): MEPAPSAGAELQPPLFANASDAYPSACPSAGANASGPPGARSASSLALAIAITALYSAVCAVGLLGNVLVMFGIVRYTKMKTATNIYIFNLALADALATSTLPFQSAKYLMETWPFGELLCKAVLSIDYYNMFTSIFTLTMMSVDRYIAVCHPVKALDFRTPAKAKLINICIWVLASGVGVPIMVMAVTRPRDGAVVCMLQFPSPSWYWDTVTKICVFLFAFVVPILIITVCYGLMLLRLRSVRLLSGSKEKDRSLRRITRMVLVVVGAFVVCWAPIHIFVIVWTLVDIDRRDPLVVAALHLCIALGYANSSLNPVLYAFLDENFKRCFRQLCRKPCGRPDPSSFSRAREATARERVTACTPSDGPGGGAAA
pKi: −log10 of the molar value.
OBSERVATION_TYPE: pKi

Please tell me: pKi of CC(CF)NCC(O)COc1cccc2[nH]c3ccccc3c12 [Fluorocarazolol,(S)] , system Delta-type opioid receptor (Homo sapiens, UniProt P41143)? < 5.00

====

- ASSAYED_TARGET: UniProt:P08909
- Sequence (P08909 whole entry): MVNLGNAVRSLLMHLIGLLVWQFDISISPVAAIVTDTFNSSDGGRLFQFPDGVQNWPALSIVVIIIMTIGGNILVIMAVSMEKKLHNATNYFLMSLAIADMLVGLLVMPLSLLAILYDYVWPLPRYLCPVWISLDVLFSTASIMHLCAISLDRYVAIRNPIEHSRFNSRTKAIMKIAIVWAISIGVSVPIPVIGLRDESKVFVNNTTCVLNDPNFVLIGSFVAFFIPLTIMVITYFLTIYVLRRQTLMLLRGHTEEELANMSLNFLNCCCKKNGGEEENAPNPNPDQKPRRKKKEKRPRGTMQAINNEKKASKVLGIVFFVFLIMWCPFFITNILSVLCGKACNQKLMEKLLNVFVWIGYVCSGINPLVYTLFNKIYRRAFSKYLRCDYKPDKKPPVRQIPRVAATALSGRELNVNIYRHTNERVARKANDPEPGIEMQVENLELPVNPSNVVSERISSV
OBSERVATION_TYPE: Ki

Form field: reported Ki of CC(CF)NCC(O)COc1cccc2[nH]c3ccccc3c12 [Fluorocarazolol,(S)] > 10 µM

====

- ASSAYED_TARGET: D(1B) dopamine receptor (Homo sapiens)
- Sequence (P21918 whole entry): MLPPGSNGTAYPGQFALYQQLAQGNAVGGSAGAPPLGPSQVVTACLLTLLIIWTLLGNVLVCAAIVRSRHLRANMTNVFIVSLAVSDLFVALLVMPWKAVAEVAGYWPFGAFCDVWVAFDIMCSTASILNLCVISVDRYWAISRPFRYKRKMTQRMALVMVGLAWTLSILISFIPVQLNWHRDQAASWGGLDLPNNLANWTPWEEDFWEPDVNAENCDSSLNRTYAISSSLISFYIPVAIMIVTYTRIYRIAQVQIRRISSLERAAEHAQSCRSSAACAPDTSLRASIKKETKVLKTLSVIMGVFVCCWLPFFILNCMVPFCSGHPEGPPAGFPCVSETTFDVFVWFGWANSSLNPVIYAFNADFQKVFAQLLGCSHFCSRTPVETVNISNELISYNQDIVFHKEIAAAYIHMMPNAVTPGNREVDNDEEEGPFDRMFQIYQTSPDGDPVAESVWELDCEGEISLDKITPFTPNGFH
OBSERVATION_TYPE: Ki

Quick check: Ki of CC(CF)NCC(O)COc1cccc2[nH]c3ccccc3c12 [Fluorocarazolol,(S)] ? > 10 µM

====

- ASSAYED_TARGET: D(1A) dopamine receptor (Homo sapiens, UniProt P21728)
- Sequence (P21728 whole entry): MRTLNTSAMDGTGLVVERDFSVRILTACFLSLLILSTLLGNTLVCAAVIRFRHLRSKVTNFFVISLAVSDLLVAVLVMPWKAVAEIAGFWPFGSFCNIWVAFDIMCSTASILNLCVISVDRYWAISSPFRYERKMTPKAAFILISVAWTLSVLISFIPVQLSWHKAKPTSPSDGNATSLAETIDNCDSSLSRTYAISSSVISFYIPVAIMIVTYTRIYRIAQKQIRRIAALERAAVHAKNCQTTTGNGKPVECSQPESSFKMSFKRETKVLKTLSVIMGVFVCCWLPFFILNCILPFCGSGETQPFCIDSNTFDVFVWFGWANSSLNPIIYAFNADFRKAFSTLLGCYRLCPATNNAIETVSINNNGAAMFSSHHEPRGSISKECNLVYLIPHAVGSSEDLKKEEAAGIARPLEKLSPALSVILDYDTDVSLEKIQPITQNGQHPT
OBSERVATION_TYPE: Ki

Which measured Ki belongs to CC(CF)NCC(O)COc1cccc2[nH]c3ccccc3c12 [Fluorocarazolol,(S)] , tested on D(1A) dopamine receptor (Homo sapiens, UniProt P21728)? > 10 µM

====

- ASSAYED_TARGET: 5-hydroxytryptamine receptor 5A (Homo sapiens, UniProt P47898)
- Sequence (P47898 whole entry): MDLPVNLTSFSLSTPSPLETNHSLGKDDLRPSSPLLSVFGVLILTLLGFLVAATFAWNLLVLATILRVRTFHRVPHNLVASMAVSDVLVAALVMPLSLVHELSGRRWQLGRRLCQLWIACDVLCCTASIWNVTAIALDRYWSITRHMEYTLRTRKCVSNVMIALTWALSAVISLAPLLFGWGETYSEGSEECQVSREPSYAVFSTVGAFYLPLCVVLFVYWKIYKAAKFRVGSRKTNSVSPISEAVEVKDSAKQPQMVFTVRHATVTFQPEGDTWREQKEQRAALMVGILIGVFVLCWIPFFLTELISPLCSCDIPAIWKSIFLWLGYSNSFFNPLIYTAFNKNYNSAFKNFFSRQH
OBSERVATION_TYPE: Ki

Quick one: Ki for CC(CF)NCC(O)COc1cccc2[nH]c3ccccc3c12 [Fluorocarazolol,(S)] ? > 10 µM

====

- ASSAYED_TARGET: Vasopressin V1b receptor (Homo sapiens)
- Sequence (P47901 whole entry): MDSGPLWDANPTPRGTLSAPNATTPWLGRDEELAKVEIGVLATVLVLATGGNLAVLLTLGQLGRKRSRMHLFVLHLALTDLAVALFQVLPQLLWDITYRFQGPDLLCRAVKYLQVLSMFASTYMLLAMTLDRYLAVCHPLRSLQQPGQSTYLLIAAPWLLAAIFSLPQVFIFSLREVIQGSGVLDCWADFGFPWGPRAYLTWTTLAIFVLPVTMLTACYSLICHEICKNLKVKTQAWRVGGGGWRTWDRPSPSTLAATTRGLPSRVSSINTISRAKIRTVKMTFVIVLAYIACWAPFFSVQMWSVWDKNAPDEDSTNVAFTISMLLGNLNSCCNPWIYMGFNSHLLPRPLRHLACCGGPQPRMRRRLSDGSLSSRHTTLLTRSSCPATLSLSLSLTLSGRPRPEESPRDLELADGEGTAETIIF
OBSERVATION_TYPE: Ki

Data request, read-out Ki, for CC(CF)NCC(O)COc1cccc2[nH]c3ccccc3c12 [Fluorocarazolol,(S)] > 10 µM

====

OBSERVATION_TYPE: Ki

Hi! What's the reported Ki for CC(CF)NCC(O)COc1cccc2[nH]c3ccccc3c12 [Fluorocarazolol,(S)] on Sodium-dependent noradrenaline transporter (Homo sapiens, UniProt P23975)? > 10 µM
